binders and their reported hAmylin-R funct. EC50 (pM)
# measurement.target: T1, human amylin 3(a) receptor (human calcitonin receptor co-expressed with RAMP-3) (human, UniProt P30988 25-474; O60896 24-148, limits assumed)
# T1 sequence (looked up) 1: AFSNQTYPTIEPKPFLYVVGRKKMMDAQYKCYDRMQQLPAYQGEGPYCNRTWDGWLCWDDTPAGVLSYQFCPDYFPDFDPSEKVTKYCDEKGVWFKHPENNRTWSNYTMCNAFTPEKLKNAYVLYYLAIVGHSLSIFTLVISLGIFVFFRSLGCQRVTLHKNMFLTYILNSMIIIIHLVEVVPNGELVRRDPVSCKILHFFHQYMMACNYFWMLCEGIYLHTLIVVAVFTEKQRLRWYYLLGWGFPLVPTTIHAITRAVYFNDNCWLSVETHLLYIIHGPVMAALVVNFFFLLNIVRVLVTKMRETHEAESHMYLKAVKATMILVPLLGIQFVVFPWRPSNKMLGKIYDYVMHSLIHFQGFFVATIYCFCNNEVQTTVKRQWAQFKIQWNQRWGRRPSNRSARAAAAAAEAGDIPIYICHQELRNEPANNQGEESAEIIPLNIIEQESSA
# T1 sequence (looked up) 2: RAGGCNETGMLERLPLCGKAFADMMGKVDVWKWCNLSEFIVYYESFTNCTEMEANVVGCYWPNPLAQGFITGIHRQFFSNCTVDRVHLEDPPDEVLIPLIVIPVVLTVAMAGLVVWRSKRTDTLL
# assay.notes: cell-based or functional assay
Numbered stars: 1 amine (or outer) side, 2 acyl side, 3 side chain; on linkers, the order of the positions; unused ones are H or OH. Ends that are not written are not given here. * marks the point of attachment. C20 diacid = O=C(O)CCCCCCCCCCCCCCCCCCC(=O)*; C18 diacid = O=C(O)CCCCCCCCCCCCCCCCC(=O)*; γGlu = O=C(O)[C@H](CCC(=O)[*:2])N[*:1]; C14 diacid = O=C(O)CCCCCCCCCCCCC(=O)*; Palmitoyl = CCCCCCCCCCCCCCCC(=O)*; AEEA = NCCOCCOCC(=O)O
Unit pM implied. Number only.

See these solved cases before continuing.
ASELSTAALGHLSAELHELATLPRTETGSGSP-NH2 [[des1, 12H, 30S, 31G]mimylin] ... 14
{C18 diacid-γGlu}-ASELTTAVLGRLEAELHELTTLPRTETGTGTP-NH2 [[N-terminal(C18 diacid-gGlu), des1, 6T, 9V, 14E, 21T, 30T, 31G, 32T]mimylin] ... 386
{C20 diacid-γGlu-AEEA-AEEA}-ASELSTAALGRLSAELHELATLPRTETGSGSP-NH2 [[N-terminal(C20 diacid-gGlu-2xOEG), des1, 30S, 31G]mimylin] ... 17
{C14 diacid-γGlu-γGlu-AEEA-AEEA-AEEA-AEEA}-EASELSTAALGRLSAELHELATLPRTETGPESP-NH2 [[N-terminal(C14 diacid-2xgGlu-4xOEG)]mimylin] ... 27
Palmitoyl-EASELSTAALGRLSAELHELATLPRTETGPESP-NH2 [[N-terminal(C16)]mimylin] ... 10

Q: Suppose we examine the binder {C14 diacid-γGlu}-ASELSTAALGRLSAELHELATLPRTETGPESP-NH2 [[N-terminal(C14 diacid-gGlu), des1]mimylin] ; what hAmylin-R funct. EC50 (pM) value has been reported?
Result: 8
